B1: Coiled-coil domain-containing protein 33 (Homo sapiens), Q8N5R6-5 (parent)
chain: MGEPGPPSPPAPKAAPGLIDSFSEMNNYRRAMQKMAEDILSLRRQASILEGENRILRSRLAQQEEEEGQGKASEAQNTVSMKQKLLLSELDMKKLRDRVQHLQNELIRKNDREKELLLLYQAQQPQAALLKQYQGKLQKMKALEETVRHQEKVIEKMERVLEDRLQDRSKPPPLNRQQGKPYTGFPMLSASGLPLGSMGENLPVELYSVLLAENAKLRTELDKNRHQQAPIILQQQALPVDPGELGAGGDLTERLQETHGPGHSECTETLPAQDLLSGTSDKFNLLAKLEHAQSRILSLESQLEDSARRWGREKQDLATRLQEQEKGFRHPSNSIIIEQPVSDPPGVAPRGSGGGAGSHRTPKVTGP
partner: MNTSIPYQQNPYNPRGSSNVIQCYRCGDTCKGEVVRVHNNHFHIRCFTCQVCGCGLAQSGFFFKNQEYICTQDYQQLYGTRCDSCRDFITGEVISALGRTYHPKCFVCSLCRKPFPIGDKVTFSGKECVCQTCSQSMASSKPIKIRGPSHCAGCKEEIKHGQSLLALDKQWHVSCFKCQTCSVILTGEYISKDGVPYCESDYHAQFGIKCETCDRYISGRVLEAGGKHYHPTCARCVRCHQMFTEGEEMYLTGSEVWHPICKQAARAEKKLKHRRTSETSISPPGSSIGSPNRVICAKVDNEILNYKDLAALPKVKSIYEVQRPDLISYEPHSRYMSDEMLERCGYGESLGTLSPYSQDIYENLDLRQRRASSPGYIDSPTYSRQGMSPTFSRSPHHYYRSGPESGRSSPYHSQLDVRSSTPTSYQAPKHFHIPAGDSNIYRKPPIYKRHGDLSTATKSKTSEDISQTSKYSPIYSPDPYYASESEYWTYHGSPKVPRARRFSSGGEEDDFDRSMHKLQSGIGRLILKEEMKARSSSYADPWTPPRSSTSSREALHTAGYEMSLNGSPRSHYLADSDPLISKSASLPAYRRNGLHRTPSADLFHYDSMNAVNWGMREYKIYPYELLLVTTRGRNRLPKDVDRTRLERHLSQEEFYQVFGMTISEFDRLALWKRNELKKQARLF

# Variants of: B1
# TEST SETTINGS: with ablm3_human ABLIM3, O94929

[
  {
    "MUT": "R30L",
    "effect of a mutation on the interaction": "with no effect"
  },
  {
    "MUT": "M25V",
    "effect of a mutation on the interaction": "with no effect"
  },
  {
    "MUT": "G196R",
    "effect of a mutation on the interaction": "with no effect"
  }
]

The reported numbers originate from IntAct's records for PubMed 31515488.
